# Tested on: OVCAR-5
# Test: NCI tumour cell line growth inhibition, 48 h
Calls of active or inactive are those of the source. Cut-off read from the data, not from the text of the source: active = GI50 up to about 1.1 µM and inactive = higher. Residues, ends and D or L forms follow the SMILES beside them. *: point of attachment. Pentanoyl = CCCCC(=O)*; Boc = CC(C)(C)OC(=O)*
Outcome (select one): active, inactive

What call does the record list for `O=C1c2cccc(NCCNCCO)c2C(=O)c2cccc(NCCNCCO)c21` ?
inactive

Give the logged outcome of this assay for the following compound: CCN1CC2(CO)CCC(OC)C34C5CC6C(OC)CC(O)(C5C6OC)C(O)(C(OC)C23)C14 (stereo unspecified)
inactive

Tell me the recorded outcome of this test for FC(F)(F)c1ccccc1C1SCc2nc3ccccc3n21 (stereo unspecified) .
inactive

// param item: `CC(C)(C)OC(=O)c1ccc(NCC2=C(Br)C(=O)C=CC2=O)cc1` ; yields the recorded call
inactive

Write down the call the test reported for this compound. Item: `COC(=O)c1sc2c(Cl)c(Cl)sc2c1Cl`
inactive

Query: recorded result category for `CCOC(=O)C1C(c2ccccc2)=C(c2ccccc2)C(c2ccccc2)=C1c1ccccc1` in this test
inactive

Dear all, I need the recorded test outcome for `ClC(Cl)[Si]12OCCN(CCO1)CCO2` , thank you.
inactive

For this compound, state the assay outcome: `Cc1c(Cl)c(C)c(Cl)c(O)c1Cl`
inactive

Status in this test for CCCCC(=O)Oc1ccc(CC(NC(=O)OC(C)(C)C)C(=O)NC(C)C(=O)NC(Cc2ccccc2)C(=O)NCC(N)=O)cc1 (stereo unspecified) (Boc-Y(Pentanoyl)AFG-NH2; configuration not given here) ?
inactive

What call does the record list for `O=C(Nc1cccc2c1[nH]c1c(-c3ccccc3)nccc12)c1ccccc1[N+](=O)[O-]` ?
inactive

Just curious, what result did CCN(CC)CCCC(C)NC(=O)c1ccc2c(c1)C(=O)c1ccccc1C2=O (stereo unspecified) get here?
inactive

Please share the test call associated with `NCCSC(c1ccccc1)c1ccccc1` .
inactive

Would you mind telling me which call this test gave `O=C1c2cccc(NCCCNCCO)c2C(=O)c2cccc(NCCCNCCO)c21` ?
inactive

// return assay outcome for ClC(Cl)(Cl)C1CCOC1n1nnc2ccccc21 (stereo unspecified)
inactive

Just curious, what result did COC(=O)/C=C/[C@@H]1[C@H](C)N1S(=O)(=O)c1ccc(C)cc1 (stereo partly specified) get here?
inactive

Tell me the recorded outcome of this test for CN(C)CCOc1ccc2[nH]c(C(=O)N3CC(CCl)c4ccc(N)cc43)cc2c1 (stereo unspecified) .
active

Any idea what this test logged for `S=C(Nc1ccccc1)N(/N=C/C=C/c1ccccc1)c1nnc(-c2ccccc2)c(-c2ccccc2)n1` ?
inactive

GET /call?item= `O=C1/C(=C\c2ccccc2)CN(C(=O)CCN2CCCCC2)C/C1=C/c1ccccc1` returns the recorded outcome of this test.
inactive

Hi team, can someone confirm the assay call for `Cc1ccc(O)cc1.Cc1cccc(O)c1.Cc1ccccc1O` ?
inactive

// return assay outcome for CC(=O)OC1c2ccccc2CC2(OC(C)=O)c3ccccc3C12 (stereo unspecified)
inactive

Could you kindly confirm the outcome this assay logged for COc1ccc(C2C(Cl)C(=O)N2NC(=O)c2ccc(N)cc2)cc1OC (stereo unspecified) ?
inactive
